List of EC50 values.
# procedureSummary: fluconazole-exposed Candida albicans growth modulators – fluorescence, retest, confirmation (AID 2467)
# Type: functional, cell-based
Activity calls are given as the source filed them.

Would you please look over these solved cases?
> print(dat)
                                   molecule  quantityname                      val
1  N=c1c2c(-c3ccccc3)c(-c3ccccc3)n(Cc3ccccc3)c2ncn1CCO          EC50  > 38000 nM (not active)
2       Cc1ccc(Nc2nc(Cl)nc(NC(C)(C)C)n2)cc1          EC50         1980 nM (active)
3  Cc1cc(NC(=O)c2c(F)cccc2Cl)n(-c2nc3ccccc3[nH]2)n1          EC50  > 38000 nM (not active)
4          Nc1nonc1C(=O)N/N=C/c1cc(Br)ccc1O          EC50          782 nM (active)

Here is the next item to consider.
# lookup: EC50 of Cc1cccc(C2CC3(CC(C)(C)N=C(S)N3)Oc3cc(O)ccc32)c1 (stereo not given) 2440 nM (active)

###

# testedOn: Endoribonuclease toxin MazF (Escherichia coli K-12, UniProt P0AE70)
# Sequence (P0AE70 whole entry): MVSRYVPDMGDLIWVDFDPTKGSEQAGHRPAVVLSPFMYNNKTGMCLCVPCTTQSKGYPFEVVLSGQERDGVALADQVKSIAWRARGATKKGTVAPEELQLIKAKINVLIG
# procedureSummary: substrate-only fluorescence increase artefacts – biochemical, single-stranded RNase substrate, counter-screen for MazEF activator project, dose response (AID 588502)
# Format: functional
Active and inactive are the calls of the source.
quantityName: EC50

> print(dat)
                             moleculesmiles                 val
1  C=CCSC1=N/C(=C\c2cc(OC)c3c(c2)OCO3)C(=O)S1  64.5 µM (inactive)
2  Nc1nc(N)c2cc(S(=O)(=O)c3ccc4ccccc4c3)ccc2n1  > 99 µM (inactive)
3    O=C1C=C(c2c(O)ccc3ccccc23)c2ccccc2C1=O  > 99 µM (inactive)
4  CN1/C(=C/C(=O)c2ccc(Cl)cc2)Sc2cc3c(cc21)OCO3  62.3 µM (inactive)

Now consider the entry below.
Suppose we examine the molecule "Cc1ccc(C)c(Nc2nc3c(S(=O)(=O)c4ccccc4)nnn3c3ccccc23)c1" ; what EC50 value has been reported? > 99 µM (inactive)

###

# testedOn: Kappa-type opioid receptor (Homo sapiens)
# Sequence (P41145 whole entry): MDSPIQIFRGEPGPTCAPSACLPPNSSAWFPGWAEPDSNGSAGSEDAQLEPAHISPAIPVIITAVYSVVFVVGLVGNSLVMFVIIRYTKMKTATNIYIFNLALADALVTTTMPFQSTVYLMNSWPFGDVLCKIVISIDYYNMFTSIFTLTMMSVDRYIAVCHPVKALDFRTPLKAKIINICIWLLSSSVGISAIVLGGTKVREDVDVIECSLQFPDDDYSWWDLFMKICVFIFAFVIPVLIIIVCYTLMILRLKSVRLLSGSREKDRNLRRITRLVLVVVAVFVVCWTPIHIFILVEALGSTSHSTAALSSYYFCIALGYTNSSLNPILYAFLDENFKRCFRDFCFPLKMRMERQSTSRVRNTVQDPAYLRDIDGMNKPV
# Format: functional
quantityName: EC50 (µM)
I only need the number, in µM, no unit after it.

Which value of EC50 has been reported for "O=C(c1ccc([N+](=O)[O-])cc1)N(Cc1ccc(Br)cc1)N1C(=O)CCCC1=O" in the records? 3.55

###

# AC50 per entry
# testedOn: Cytochrome P450 2D6 (Homo sapiens, UniProt P10635)
# Sequence (P10635 whole entry): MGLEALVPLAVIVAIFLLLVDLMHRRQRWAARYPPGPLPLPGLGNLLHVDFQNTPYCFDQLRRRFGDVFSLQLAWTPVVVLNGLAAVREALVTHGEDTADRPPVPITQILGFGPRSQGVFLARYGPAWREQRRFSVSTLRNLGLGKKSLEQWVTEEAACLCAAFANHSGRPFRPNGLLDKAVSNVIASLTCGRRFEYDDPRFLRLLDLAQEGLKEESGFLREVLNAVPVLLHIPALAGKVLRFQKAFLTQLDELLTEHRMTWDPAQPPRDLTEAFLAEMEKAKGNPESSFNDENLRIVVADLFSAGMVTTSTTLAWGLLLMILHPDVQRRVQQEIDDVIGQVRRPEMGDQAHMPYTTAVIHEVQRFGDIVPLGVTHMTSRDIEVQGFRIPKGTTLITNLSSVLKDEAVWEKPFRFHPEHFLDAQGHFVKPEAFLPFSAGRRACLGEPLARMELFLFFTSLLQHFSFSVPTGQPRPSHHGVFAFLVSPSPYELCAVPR

Known AC50 results, listed for orientation:
> print(dat)
                                   compound                      val
1  Cc1cnc(CNc2nc(-c3ccc(N(C)C)cc3)nc3ccccc23)cn1   39.8 µM (inconclusive)
2  C=CCc1cccc(C2Nc3ccccc3C(=O)N2O)c1O (stereo not given)  0.355 µM (inconclusive)
3  CCCC(=O)Nc1ccc(C(=O)NNC(=S)NC(=O)c2cccs2)cc1   39.8 µM (inconclusive)
4  COc1cccc(Cn2c(=O)c(-c3ccccc3)nc3cnc(N4CCNCC4)nc32)c1     10 µM (inconclusive)
5  Cn1c(=O)c2cc(S(=O)(=O)NCCC(=O)NCc3ccccc3Cl)ccc2n(C)c1=O   17.8 µM (inconclusive)

# ---- query compound ----
Lab request: please report AC50 under test system Cytochrome P450 2D6 (Homo sapiens, UniProt P10635) for "Clc1ccccc1-c1ccc2ncnc(NC3CCNCC3)c2c1" 20 µM (inconclusive)

Taken from ChEMBL document CHEMBL1201862.
